# Test system: HCT-15
METRIC: GI50

Below: 4 molecules and their reported GI50.
INSERT INTO results (molecule, recorded_value) VALUES
  ('COc1c(Cl)c(Cl)c(OC)c2c1C(=O)C=CC2=O', '35.6 µM'),
  ('O=C1CCC2(CCO1)OCCO2', '> 100 µM'),
  ('Cc1[nH]c2ncn(Nc3ccccc3)c(=N)c2c1Cc1ccccc1', '4.34 µM'),
  ('O=C1c2cc([N+](=O)[O-])sc2C(=O)c2c([N+](=O)[O-])csc21', '0.482 µM');

Consider the following items and state reported GI50 for each.
1. C=CCc1cc(C=C(C#N)C#N)cc(OC)c1O
2. CC(C)(CCCCC(C)(C)[N+](C)(C)C)[N+](C)(C)C
3. COC(=O)NCCc1n[nH]c2c1C(=O)C=C(OC)C2=O
4. CCON=C1C(C)(C)C(C)(C)C(C)(C)C1(C)C
5. C[N+](C)(C)CCc1ccccc1
6. COc1ccc2[nH]cc(CCNC(=O)[C@](O)(Cc3cn(C)c4ccccc34)[C@@]3(O)OCC(O)C3O)c2c1 (some centres not stated)

["67.6 µM", "> 100 µM", "28.4 µM", "> 100 µM", "> 100 µM", "> 100 µM"]

Consider the following items and state reported GI50 for each.
1. Nc1ccccc1C(=O)/C=C/c1c(O)ccc2ccccc12
2. CC(=O)N1N(c2ccc([N+](=O)[O-])cc2)C(=O)C1(C)C

1. > 100 µM
2. 15.7 µM
